- Measured target: phosphorylated ERBB2 (pERBB2) (Homo sapiens, UniProt P04626)
- Construct: endogenous in cells
- Sequence (P04626 23-1255): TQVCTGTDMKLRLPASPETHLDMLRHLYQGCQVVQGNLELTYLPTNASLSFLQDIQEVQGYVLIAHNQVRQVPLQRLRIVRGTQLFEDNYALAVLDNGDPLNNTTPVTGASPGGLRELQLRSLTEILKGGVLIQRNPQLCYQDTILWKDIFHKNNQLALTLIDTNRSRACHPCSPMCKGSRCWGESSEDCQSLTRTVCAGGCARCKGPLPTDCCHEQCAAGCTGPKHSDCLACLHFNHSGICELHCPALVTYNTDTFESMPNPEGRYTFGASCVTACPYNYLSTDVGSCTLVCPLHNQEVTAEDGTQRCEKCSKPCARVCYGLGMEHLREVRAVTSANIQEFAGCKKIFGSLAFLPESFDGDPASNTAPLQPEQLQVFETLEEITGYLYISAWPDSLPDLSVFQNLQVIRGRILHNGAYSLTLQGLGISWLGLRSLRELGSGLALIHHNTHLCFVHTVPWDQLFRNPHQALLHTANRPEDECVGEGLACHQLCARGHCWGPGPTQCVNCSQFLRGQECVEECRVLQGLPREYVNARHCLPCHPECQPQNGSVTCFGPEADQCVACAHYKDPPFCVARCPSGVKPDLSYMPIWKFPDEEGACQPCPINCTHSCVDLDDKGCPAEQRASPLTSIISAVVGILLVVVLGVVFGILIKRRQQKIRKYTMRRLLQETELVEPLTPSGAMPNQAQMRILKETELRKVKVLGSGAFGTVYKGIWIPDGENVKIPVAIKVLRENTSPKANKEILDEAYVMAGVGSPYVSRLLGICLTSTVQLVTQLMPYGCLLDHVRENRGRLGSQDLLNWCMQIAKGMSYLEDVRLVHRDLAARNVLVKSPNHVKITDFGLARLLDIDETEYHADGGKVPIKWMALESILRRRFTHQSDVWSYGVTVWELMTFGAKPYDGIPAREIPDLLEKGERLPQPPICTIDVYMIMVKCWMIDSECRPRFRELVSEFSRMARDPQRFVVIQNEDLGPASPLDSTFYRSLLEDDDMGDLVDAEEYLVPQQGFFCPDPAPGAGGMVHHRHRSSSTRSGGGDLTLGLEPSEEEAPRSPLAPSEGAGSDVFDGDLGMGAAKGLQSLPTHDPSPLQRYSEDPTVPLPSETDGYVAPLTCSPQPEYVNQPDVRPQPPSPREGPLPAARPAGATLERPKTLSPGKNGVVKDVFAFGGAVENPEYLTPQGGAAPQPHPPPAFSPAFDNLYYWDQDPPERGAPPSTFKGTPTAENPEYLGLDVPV
- Experiment summary: Detection of phosphorylated ERBB2 (pERBB2) by ELISA in BT-474 cells
- Condition description: four hours incubation with compound, OD 450 nm
Where a name gives a salt, the structure may show the parent alone.
Please respond with true (1) when measured IC50 is strictly beneath 10 nM, and with false (0) in all other cases.

Past entries and their recorded results:
CC#CC(=O)Nc1cc2c(Nc3cc(C)c(Oc4ccn5ncnc5c4)cc3F)ncnc2cc1OCCN(C)C [Compound 182]    false (0)
CC#CC(=O)Nc1cc2c(Nc3ccc(Oc4ccn5ncnc5c4)c(C4CC4)c3)ncnc2cc1OCCN(C)C [Compound 195]    false (0)
CC#CC(=O)Nc1cc2c(Nc3ccc(Oc4ccn5ncnc5c4)c(C)c3)ncnc2cc1OCCNC [Compound 194]    false (0)
CC#CC(=O)Nc1ccc2ncnc(Nc3ccc(Oc4ccn5ncnc5c4)c(C)c3)c2c1 [Compound 1]    false (0)
Cc1cc(Nc2ncnc3cc(OCCN(C)C)c(NC(=O)C#CC4CC4)cc23)ccc1Oc1ccn2ncnc2c1 [Compound 170, hydrochloride]    false (0)

Field: below-cutoff. Rule: recorded IC50 strictly less than 10 nM. Subject: CC#CC(=O)Nc1cc2c(Nc3ccc(Cc4ccn5ncnc5c4)c(C)c3)ncnc2cc1OCCCN(C)C [Compound 189] true (1)

Then CC#CC(=O)Nc1cc2c(Nc3ccc(Oc4ccn5ncnc5c4)c(C)c3)ncnc2cc1OCCN(C)C [Compound 150] ? true (1)

====

- Measured target: Ba/F3 ERBB2-V777L (Homo sapiens, UniProt P04626, V777L, cells depend on it)
- Construct: Ba/F3 cell lines were engineered to express human ERBB2 or EGFR kinases, rendering the cells IL-3 independent
- Sequence (P04626 whole entry V777L): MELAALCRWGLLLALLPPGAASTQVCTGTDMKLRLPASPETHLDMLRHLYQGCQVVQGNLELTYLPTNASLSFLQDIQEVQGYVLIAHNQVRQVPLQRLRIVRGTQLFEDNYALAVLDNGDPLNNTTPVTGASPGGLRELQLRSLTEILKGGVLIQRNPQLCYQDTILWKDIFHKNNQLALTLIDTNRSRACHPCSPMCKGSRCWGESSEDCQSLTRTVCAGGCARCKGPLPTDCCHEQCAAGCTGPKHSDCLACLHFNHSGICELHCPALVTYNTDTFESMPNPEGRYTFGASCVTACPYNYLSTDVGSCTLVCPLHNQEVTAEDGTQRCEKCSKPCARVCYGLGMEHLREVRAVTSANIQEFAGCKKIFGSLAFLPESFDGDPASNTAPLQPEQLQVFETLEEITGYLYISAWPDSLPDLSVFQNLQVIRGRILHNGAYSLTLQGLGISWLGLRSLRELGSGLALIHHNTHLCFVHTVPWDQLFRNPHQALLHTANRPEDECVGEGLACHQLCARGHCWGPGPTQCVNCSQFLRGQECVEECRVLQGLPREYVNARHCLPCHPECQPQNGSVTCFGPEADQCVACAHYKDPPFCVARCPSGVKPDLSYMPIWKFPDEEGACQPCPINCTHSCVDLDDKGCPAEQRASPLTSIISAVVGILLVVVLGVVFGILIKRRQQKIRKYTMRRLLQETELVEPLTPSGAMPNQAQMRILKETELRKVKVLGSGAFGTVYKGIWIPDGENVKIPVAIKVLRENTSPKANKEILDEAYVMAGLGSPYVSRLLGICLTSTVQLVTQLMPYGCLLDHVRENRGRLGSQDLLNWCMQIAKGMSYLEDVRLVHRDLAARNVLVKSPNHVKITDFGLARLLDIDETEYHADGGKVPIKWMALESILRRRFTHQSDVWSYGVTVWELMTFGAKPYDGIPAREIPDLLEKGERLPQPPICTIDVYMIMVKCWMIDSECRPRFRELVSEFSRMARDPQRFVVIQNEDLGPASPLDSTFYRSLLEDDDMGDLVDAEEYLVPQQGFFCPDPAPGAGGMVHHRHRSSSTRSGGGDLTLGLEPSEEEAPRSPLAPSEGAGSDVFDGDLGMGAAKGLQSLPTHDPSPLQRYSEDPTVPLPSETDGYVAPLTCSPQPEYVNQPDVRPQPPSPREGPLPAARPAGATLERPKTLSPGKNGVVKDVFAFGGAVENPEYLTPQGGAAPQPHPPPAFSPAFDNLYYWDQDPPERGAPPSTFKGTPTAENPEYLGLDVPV
- Experiment summary: Cell viability assay (CellTiter Glo)
- Format: cell-based, mouse
- Condition description: 72 hours; 3000 cells per well, 96-well plates; read-out: Cell viability IC50, nM, Ba/F3 ERBB2-V777L
- Procedure: Cells were treated with compounds, and cell viability was measured as a metric of kinase inhibition. The Ba/F3 cell line is IL-3-dependent mouse cell line derived from the C3H mouse strain. […] Similarly, Ba/F3 cell lines engineered to express EGFR, ERBB2, or ERBB2 mutants were grown, harvested, counted and seeded at 3000 cells per well in 96-well plates for the data sets shown in Tables B3-B4, and seeded at 300 cells per well in 384-well plates for the data set shown in Table B5. […]
Response field label takes criterion met when GI50 is strictly below 7 nM and criterion not met in all other cases.

Cc1cc(Nc2ncnc3ccc(NC4=NC(C)(C)CO4)cc23)ccc1Oc1ccn2ncnc2c1 [Tucatinib, tucatinib, reference compound]    criterion not met
CC#CC(=O)Nc1ccc2ncnc(Nc3ccc(Oc4ccc(C)nc4)cc3)c2c1 [Compound 9]    criterion met

Consider CC#CC(=O)Nc1ccc2ncnc(Nc3ccc(Cc4ccn5ncnc5c4)cc3)c2c1 [Compound 14] . Does its GI50 lie strictly below 7 nM? criterion met

Consider next the compound CC#CC(=O)Nc1ccc2ncnc(Nc3ccc(Oc4ccc(C)nc4)c(C)c3)c2c1 [Compound 5] in the same way. criterion met

Okay, and CC#CC(=O)Nc1cc2c(Nc3ccc(Oc4ccn5ncnc5c4)c(C)c3)ncnc2cc1OCCN(C)C [Compound 150] ? criterion met

Follow-up item: CC#CC(=O)N(C)c1ccc2ncnc(Nc3ccc(Oc4ccn5ncnc5c4)cc3)c2c1 [Compound 8] criterion not met

Param item: CC#CC(=O)Nc1ccc2ncnc(Nc3ccc(Oc4ccn5ncnc5c4)c(C)c3)c2c1 [Compound 1] criterion met

Thanks! And CC#CC(=O)Nc1ccc2ncnc(Nc3ccc(Oc4cnc(C)cn4)cc3)c2c1 [Compound 10] ? criterion not met
